- Test system: Pseudomonas aeruginosa
- experiment description: Antimicrobial activity against Pseudomonas aeruginosa by broth microdilution method
- Format: functional
endpoint: MBC (µg/mL)
Express your answer in µg/mL, writing the number without its unit.

The cases that follow already have their MBC on record.
(Q) Which MBC is listed for "C[C@@H](O)[C@H]1C(=O)N2C(C(=O)O)=C(S[C@@H]3CN[C@H](C(=O)N(C)C)C3)[C@H](C)[C@H]12" ?
(A) 0.125

(Q) Which MBC is listed for "NCC[C@H](O)C(=O)N[C@@H]1C[C@H](N)[C@@H](O[C@H]2O[C@H](CN)[C@@H](O)[C@H](O)[C@H]2O)[C@H](O)[C@H]1O[C@H]1O[C@H](CO)[C@@H](O)[C@H](N)[C@H]1O" ?
(A) 2

(Q) Which MBC is listed for "C[C@H]1COc2c(N3CCN(C)CC3)c(F)cc3c(=O)c(C(=O)O)cn1c23.C[C@H]1COc2c(N3CCN(C)CC3)c(F)cc3c(=O)c(C(=O)O)cn1c23.O" ?
(A) 0.5

Others:
(Q) Which MBC is listed for "CN(C)c1cc(NC(=O)CNC(C)(C)C)c(O)c2c1C[C@H]1C[C@H]3[C@H](N(C)C)C(O)=C(C(N)=O)C(=O)[C@@]3(O)C(O)=C1C2=O" ?
(A) 8
